- System: uterus
- Assay Remarks: Post-menopausal ovariectomized rat model: wet uterine weight
- Format: in vivo, female Sprague Dawley rats
- Stated Conditions: 10 mg/kg PO, daily for 4 days
Consider the following molecules; for each one, report its Uterine Wt. (% Inc.) versus the ovariectomized controls.
Answers are plain numbers, in %.

Required: Uterine Wt. (% Inc.) versus the ovariectomized controls, one value per molecule below.
1. CC(C)COC(=O)c1ccc2c(C(=O)c3ccc(OCCN4CCCCC4)cc3)c(-c3ccc(O)cc3)sc2c1
2. CCCCOC(=O)c1ccc2c(C(=O)c3ccc(OCCN4CCCCC4)cc3)c(-c3ccc(O)cc3)sc2c1
3. C#Cc1ccc2c(C(=O)c3ccc(OCCN4CCCCC4)cc3)c(-c3ccc(O)cc3)sc2c1
4. Cl.O=C(O)c1ccc2c(C(=O)c3ccc(OCCN4CCCCC4)cc3)c(-c3ccc(O)cc3)sc2c1
5. CC(=O)c1ccc2c(C(=O)c3ccc(OCCN4CCCCC4)cc3)c(-c3ccc(O)cc3)sc2c1

Out:
47.1
52.5
22.5
29.6
69.4

In: For the molecule COC(=O)c1ccc2c(C(=O)c3ccc(OCCN4CCCCC4)cc3)c(-c3ccc(O)cc3)sc2c1.Cl , give its reported Uterine Wt. (% Inc.) versus the ovariectomized controls.
Out: 45.2

====

- Tested on: uterus
- Assay Remarks: Post-menopausal ovariectomized rat model: wet uterine weight
- Type: in vivo, female Sprague Dawley rats
- Stated Conditions: 1 mg/kg PO, daily for 4 days
Would you kindly list Uterine Wt. (% Inc.) versus the ovariectomized controls for each of these molecules?
One number for each entry, in %.

Known Uterine Wt. (% Inc.) versus the ovariectomized controls results, listed for orientation:
{"Molecule": "CCCCOC(=O)c1ccc2c(C(=O)c3ccc(OCCN4CCCCC4)cc3)c(-c3ccc(O)cc3)sc2c1 [Example 2]", "Display Unit": "%", "Value Reported": 16.8}
{"Molecule": "COC(=O)c1ccc2c(C(=O)c3ccc(OCCN4CCCCC4)cc3)c(-c3ccc(O)cc3)sc2c1.Cl [Example 1]", "Display Unit": "%", "Value Reported": 19.1}
{"Molecule": "CC(=O)c1ccc2c(C(=O)c3ccc(OCCN4CCCCC4)cc3)c(-c3ccc(O)cc3)sc2c1 [Example 5]", "Display Unit": "%", "Value Reported": 51.8}
{"Molecule": "CC(C)COC(=O)c1ccc2c(C(=O)c3ccc(OCCN4CCCCC4)cc3)c(-c3ccc(O)cc3)sc2c1 [Example 3]", "Display Unit": "%", "Value Reported": 21.7}
{"Molecule": "Cl.O=C(O)c1ccc2c(C(=O)c3ccc(OCCN4CCCCC4)cc3)c(-c3ccc(O)cc3)sc2c1 [Example 4]", "Display Unit": "%", "Value Reported": 27.2}

Consider the additional molecule presented here.
In: Given the molecule C#Cc1ccc2c(C(=O)c3ccc(OCCN4CCCCC4)cc3)c(-c3ccc(O)cc3)sc2c1 [Example 6] , write its reported Uterine Wt. (% Inc.) versus the ovariectomized controls.
Out: 27.8
